The reported numbers originate from patent US11951094B2.

biological target: TLR2 (Homo sapiens); assay: TLR2 agonist screening assay, HEK-Blue TLR2 reporter cell line (NF-kB-driven SEAP, absorbance at 600 nm); type: cell-based; set-up: host or cells: HEK-293 (HEK-Blue TLR2 reporter cell line); details: HEK-Blue TLR2 reporter cells, agonist mode; average of all runs (Table 4)
Sequence (O60603 21-784): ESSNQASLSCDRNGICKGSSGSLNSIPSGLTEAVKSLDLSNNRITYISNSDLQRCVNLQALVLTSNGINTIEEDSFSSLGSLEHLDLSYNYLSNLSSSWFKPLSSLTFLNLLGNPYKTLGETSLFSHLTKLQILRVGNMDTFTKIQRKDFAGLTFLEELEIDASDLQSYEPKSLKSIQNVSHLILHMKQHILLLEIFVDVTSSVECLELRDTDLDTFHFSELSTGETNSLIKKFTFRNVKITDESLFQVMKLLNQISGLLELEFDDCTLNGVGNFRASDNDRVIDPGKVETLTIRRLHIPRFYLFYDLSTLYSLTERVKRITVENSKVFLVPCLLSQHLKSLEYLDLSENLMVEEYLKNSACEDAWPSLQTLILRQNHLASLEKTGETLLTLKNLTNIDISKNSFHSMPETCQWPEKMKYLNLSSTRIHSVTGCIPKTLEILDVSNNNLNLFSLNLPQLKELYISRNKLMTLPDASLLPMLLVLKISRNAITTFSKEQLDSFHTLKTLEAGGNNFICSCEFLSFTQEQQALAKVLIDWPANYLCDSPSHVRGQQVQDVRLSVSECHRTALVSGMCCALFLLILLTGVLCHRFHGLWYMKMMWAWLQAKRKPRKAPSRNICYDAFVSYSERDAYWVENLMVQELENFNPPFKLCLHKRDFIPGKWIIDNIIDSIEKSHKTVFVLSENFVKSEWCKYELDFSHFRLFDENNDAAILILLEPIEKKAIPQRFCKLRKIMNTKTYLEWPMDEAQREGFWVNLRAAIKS
pEC50: −log10 of the molar value.
endpoint_name: pEC50

As a guide, the following entries are already answered.
CCCCCCCCCC(=O)N[C@@H](CNc1nc2ccc(C(=O)N3C[C@@H](C(=O)N[C@H]4C[C@@H]4c4ccccc4)[C@H](C(=O)N[C@H]4C[C@@H]4c4ccccc4)C3)cc2s1)C(=O)NCCCCCC = < 6.00
CCCCCCCCCCCCCCS(=O)(=O)N[C@@H]1CCN(C(=O)c2ccc(C(=O)N3C[C@@H](C(=O)N[C@H]4C[C@@H]4c4ccccc4)[C@H](C(=O)N[C@H]4C[C@@H]4c4ccccc4)C3)cc2)C1 = < 6.00
CCCCCCNC(=O)[C@H](CNC(=O)c1ccc(C(=O)N2C[C@@H](C(=O)N[C@H]3C[C@@H]3c3ccccc3)[C@H](C(=O)N[C@H]3C[C@@H]3c3ccccc3)C2)cc1)NC(=O)OCCCCCC = < 6.00
CCCCCCCCCC(=O)N[C@@H](CNc1nc2cc(C(=O)N3C[C@@H](C(=O)N[C@H]4C[C@@H]4c4ccccc4)[C@H](C(=O)N[C@H]4C[C@@H]4c4ccccc4)C3)ccc2o1)C(=O)NCCCCCC = < 6.00

# context switch: different molecule, same pEC50
# returns recorded pEC50 (system: TLR2 (Homo sapiens)) for CCCCCCCCCCCCCCNC(=O)[C@@H]1CN(C(=O)c2ccc(C(=O)N3C[C@@H](C(=O)N[C@H]4C[C@@H]4c4ccccc4)[C@H](C(=O)N[C@H]4C[C@@H]4c4ccccc4)C3)cc2)C[C@H]1N(C)C
< 6.00
